The compounds listed here are annotated with their MIC90.
tested on: Clostridium bartlettii; experiment: Antibacterial activity against Clostridium bartlettii by CLSI M11-A6 agar dilution method; type: functional; conditions: Intestinibacter bartlettii
Give the value, in units of µg/mL, as a plain number.

1) CC(=O)NC[C@H]1CN(c2ccc(N3CCOCC3)c(F)c2)C(=O)O1; 4
2) Cc1ncc([N+](=O)[O-])n1CCO; 1
3) CCCCCCCCCCNCCN[C@@]1(C)C[C@H](O[C@H]2[C@H](Oc3c4cc5cc3Oc3ccc(cc3Cl)[C@@H](O)[C@@H](NC(=O)[C@@H](CC(C)C)NC)C(=O)N[C@@H](CC(N)=O)C(=O)N[C@H]5C(=O)N[C@H]3C(=O)N[C@H](C(=O)N[C@H](C(=O)O)c5cc(O)c(CNCP(=O)(O)O)c(O)c5-c5cc3ccc5O)[C@H](O)c3ccc(c(Cl)c3)O4)O[C@H](CO)[C@@H](O)[C@@H]2O)O[C@@H](C)[C@H]1O; 0.25
4) CCCCCCCCCC(=O)N[C@@H](Cc1c[nH]c2ccccc12)C(=O)N[C@H](CC(N)=O)C(=O)N[C@@H](CC(=O)O)C(=O)N[C@@H]1C(=O)NCC(=O)N[C@@H](CCCN)C(=O)N[C@@H](CC(=O)O)C(=O)N[C@H](C)C(=O)N[C@@H](CC(=O)O)C(=O)NCC(=O)N[C@H](CO)C(=O)N[C@@H]([C@H](C)CC(=O)O)C(=O)N[C@@H](CC(=O)c2ccccc2N)C(=O)O[C@@H]1C; 8

[Q] I'd like to know its MIC90. The compound in question is CCC[C@@H]1C[C@@H](C(=O)N[C@@H]([C@H]2O[C@H](SC)[C@H](O)[C@@H](O)[C@H]2O)[C@H](C)Cl)N(C)C1
[A] 4

[Q] Field request: MIC90 | item: CN[C@H](CC(C)C)C(=O)N[C@H]1C(=O)N[C@@H](CC(N)=O)C(=O)N[C@H]2C(=O)N[C@H]3C(=O)N[C@H](C(=O)N[C@H](C(=O)O)c4cc(O)cc(O)c4-c4cc3ccc4O)[C@H](O)c3ccc(c(Cl)c3)Oc3cc2cc(c3O[C@@H]2O[C@H](CO)[C@@H](O)[C@H](O)[C@H]2O[C@H]2C[C@](C)(N)[C@H](O)[C@H](C)O2)Oc2ccc(cc2Cl)[C@H]1O
[A] 4

---

tested on: Prevotella buccae; test: Antibacterial activity against Prevotella buccae by CLSI M11-A6 agar dilution method; assay type: functional; conditions: Segatella buccae
A collection of compounds and their measured MIC90

Sample answers from the record:
1) CCCCCCCCCC(=O)N[C@@H](Cc1c[nH]c2ccccc12)C(=O)N[C@H](CC(N)=O)C(=O)N[C@@H](CC(=O)O)C(=O)N[C@@H]1C(=O)NCC(=O)N[C@@H](CCCN)C(=O)N[C@@H](CC(=O)O)C(=O)N[C@H](C)C(=O)N[C@@H](CC(=O)O)C(=O)NCC(=O)N[C@H](CO)C(=O)N[C@@H]([C@H](C)CC(=O)O)C(=O)N[C@@H](CC(=O)c2ccccc2N)C(=O)O[C@@H]1C; > 128 µg/mL
2) CCC[C@@H]1C[C@@H](C(=O)N[C@@H]([C@H]2O[C@H](SC)[C@H](O)[C@@H](O)[C@H]2O)[C@H](C)Cl)N(C)C1 [CLINDAMYCIN]; ≤ 0.12 µg/mL

In the following, a different compound is considered.
[Q] # get_value(readout= MIC90, system= Prevotella buccae) for CN[C@H](CC(C)C)C(=O)N[C@H]1C(=O)N[C@@H](CC(N)=O)C(=O)N[C@H]2C(=O)N[C@H]3C(=O)N[C@H](C(=O)N[C@H](C(=O)O)c4cc(O)cc(O)c4-c4cc3ccc4O)[C@H](O)c3ccc(c(Cl)c3)Oc3cc2cc(c3O[C@@H]2O[C@H](CO)[C@@H](O)[C@H](O)[C@H]2O[C@H]2C[C@](C)(N)[C@H](O)[C@H](C)O2)Oc2ccc(cc2Cl)[C@H]1O [VANCOMYCIN]
[A] > 128 µg/mL

---

Collected MIC50 values appear next to each entry.
system: Phocaeicola vulgatus; assay: Antibacterial activity against Bacteroides vulgatus by CLSI M11-A6 agar dilution method; type: functional

1. CCCCCCCCCCNCCN[C@@]1(C)C[C@H](O[C@H]2[C@H](Oc3c4cc5cc3Oc3ccc(cc3Cl)[C@@H](O)[C@@H](NC(=O)[C@@H](CC(C)C)NC)C(=O)N[C@@H](CC(N)=O)C(=O)N[C@H]5C(=O)N[C@H]3C(=O)N[C@H](C(=O)N[C@H](C(=O)O)c5cc(O)c(CNCP(=O)(O)O)c(O)c5-c5cc3ccc5O)[C@H](O)c3ccc(c(Cl)c3)O4)O[C@H](CO)[C@@H](O)[C@@H]2O)O[C@@H](C)[C@H]1O; > 64 µg/mL
2. CCC[C@@H]1C[C@@H](C(=O)N[C@@H]([C@H]2O[C@H](SC)[C@H](O)[C@@H](O)[C@H]2O)[C@H](C)Cl)N(C)C1; > 128 µg/mL

[Q] # input molecule: CCCCCCCCCC(=O)N[C@@H](Cc1c[nH]c2ccccc12)C(=O)N[C@H](CC(N)=O)C(=O)N[C@@H](CC(=O)O)C(=O)N[C@@H]1C(=O)NCC(=O)N[C@@H](CCCN)C(=O)N[C@@H](CC(=O)O)C(=O)N[C@H](C)C(=O)N[C@@H](CC(=O)O)C(=O)NCC(=O)N[C@H](CO)C(=O)N[C@@H]([C@H](C)CC(=O)O)C(=O)N[C@@H](CC(=O)c2ccccc2N)C(=O)O[C@@H]1C ; wanted: its MIC50
[A] > 128 µg/mL

---

// MIC50 lookup, one value per entry
tested on: Ruminococcus lactaris; experiment: Antibacterial activity against Ruminococcus lactaris by CLSI M11-A6 agar dilution method; type: functional

Known MIC50 results, listed for orientation:
1) CCC[C@@H]1C[C@@H](C(=O)N[C@@H]([C@H]2O[C@H](SC)[C@H](O)[C@@H](O)[C@H]2O)[C@H](C)Cl)N(C)C1; ≤ 0.12 µg/mL
2) CCCCCCCCCCNCCN[C@@]1(C)C[C@H](O[C@H]2[C@H](Oc3c4cc5cc3Oc3ccc(cc3Cl)[C@@H](O)[C@@H](NC(=O)[C@@H](CC(C)C)NC)C(=O)N[C@@H](CC(N)=O)C(=O)N[C@H]5C(=O)N[C@H]3C(=O)N[C@H](C(=O)N[C@H](C(=O)O)c5cc(O)c(CNCP(=O)(O)O)c(O)c5-c5cc3ccc5O)[C@H](O)c3ccc(c(Cl)c3)O4)O[C@H](CO)[C@@H](O)[C@@H]2O)O[C@@H](C)[C@H]1O; ≤ 0.12 µg/mL

Now take the following molecule into account.
[Q] // returns reported MIC50 for input Cc1ncc([N+](=O)[O-])n1CCO
[A] ≤ 0.12 µg/mL

---

Form field: MIC90 (one value per entry).
test system: Propionibacterium propionicum; assay: Antibacterial activity against Propionibacterium propionicus by CLSI M11-A6 agar dilution method; format: functional; conditions: Arachnia propionica
The figure you give is taken to be in µg/mL; do not add the unit.

Reference set (3 entries):
1) CC(=O)NC[C@H]1CN(c2ccc(N3CCOCC3)c(F)c2)C(=O)O1; 8
2) CCCCCCCCCC(=O)N[C@@H](Cc1c[nH]c2ccccc12)C(=O)N[C@H](CC(N)=O)C(=O)N[C@@H](CC(=O)O)C(=O)N[C@@H]1C(=O)NCC(=O)N[C@@H](CCCN)C(=O)N[C@@H](CC(=O)O)C(=O)N[C@H](C)C(=O)N[C@@H](CC(=O)O)C(=O)NCC(=O)N[C@H](CO)C(=O)N[C@@H]([C@H](C)CC(=O)O)C(=O)N[C@@H](CC(=O)c2ccccc2N)C(=O)O[C@@H]1C; 32
3) CCCCCCCCCCNCCN[C@@]1(C)C[C@H](O[C@H]2[C@H](Oc3c4cc5cc3Oc3ccc(cc3Cl)[C@@H](O)[C@@H](NC(=O)[C@@H](CC(C)C)NC)C(=O)N[C@@H](CC(N)=O)C(=O)N[C@H]5C(=O)N[C@H]3C(=O)N[C@H](C(=O)N[C@H](C(=O)O)c5cc(O)c(CNCP(=O)(O)O)c(O)c5-c5cc3ccc5O)[C@H](O)c3ccc(c(Cl)c3)O4)O[C@H](CO)[C@@H](O)[C@@H]2O)O[C@@H](C)[C@H]1O; 0.5

In the following, a different compound is considered.
[Q] Any idea what its MIC90 is? The compound is Cc1ncc([N+](=O)[O-])n1CCO
[A] 128

---

tested on: Clostridium spiroforme; experiment: Antibacterial activity against Clostridium spiroforme by CLSI M11-A6 agar dilution method; format: functional; conditions: Thomasclavelia spiroformis
REPORTED_ENDPOINT: MIC50 (µg/mL)
Numeric answer only, unit µg/mL assumed.

In the examples that follow, each entry is paired with its recorded MIC50.
1) CC(=O)NC[C@H]1CN(c2ccc(N3CCOCC3)c(F)c2)C(=O)O1 [LINEZOLID]; 2
2) CCCCCCCCCC(=O)N[C@@H](Cc1c[nH]c2ccccc12)C(=O)N[C@H](CC(N)=O)C(=O)N[C@@H](CC(=O)O)C(=O)N[C@@H]1C(=O)NCC(=O)N[C@@H](CCCN)C(=O)N[C@@H](CC(=O)O)C(=O)N[C@H](C)C(=O)N[C@@H](CC(=O)O)C(=O)NCC(=O)N[C@H](CO)C(=O)N[C@@H]([C@H](C)CC(=O)O)C(=O)N[C@@H](CC(=O)c2ccccc2N)C(=O)O[C@@H]1C; 1

Let's switch to this compound now.
[Q] I have this compound here, Cc1ncc([N+](=O)[O-])n1CCO [METRONIDAZOLE] , and I need its recorded MIC50.
[A] 0.25
